Could you please report measured pIC50 for the items listed next?
system: 186277-243-T-J2-PDC complex spheroid viability; test: Anticancer human tumor 186277-243-T-J2-PDC patient-derived colon adenocarcinoma cell line growth inhibition [POLQ]; details: curve of first compound; second compound 0.0316 µM
pIC50: −log10 of the molar value.

So, CCc1cc2c(N3CCc4c(cc(Cn5ccnc5)cc4-c4cn(C)nc4C(F)(F)F)C3=O)cc(C)nc2c(OC)n1 + Cc1cccc(N(C)C(=O)C2C(O)CCN2c2nc(C)cc(C(F)(F)F)c2C#N)c1 ? Its pIC50 was < 5.00

So, O=C(Nc1ccc(O)c(NS(=O)(=O)c2ccc(F)cc2)c1)c1ccc(-c2ccccc2)cc1 + Nc1ccc(C#CCN(C(=O)Cc2ncc(C(F)(F)F)cc2C(F)(F)F)c2ccc(F)cc2)nn1 ? Its pIC50 was < 5.00

So, COc1cc2cc(C(=O)CCC(=O)O)sc2cc1OC + Cc1cccc(N(C)C(=O)C2C(O)CCN2c2nc(C)cc(C(F)(F)F)c2C#N)c1 ? Its pIC50 was < 5.00

So, Cn1ncnc1[C@H]1c2n[nH]c(=O)c3cc(F)cc(c23)N[C@@H]1c1ccc(F)cc1 + Nc1ccc(C#CCN(C(=O)Cc2ncc(C(F)(F)F)cc2C(F)(F)F)c2ccc(F)cc2)nn1 ? Its pIC50 was < 7.00

So, Nc1ccn(C2OC(CO)C(O)C2(F)F)c(=O)n1 (centres undefined) + Nc1ccc(C#CCN(C(=O)Cc2ncc(C(F)(F)F)cc2C(F)(F)F)c2ccc(F)cc2)nn1 ? Its pIC50 was > 7.50

So, CNCc1ccc(-c2[nH]c3cc(F)cc4c3c2CCNC4=O)cc1 + Cc1cccc(N(C)C(=O)C2C(O)CCN2c2nc(C)cc(C(F)(F)F)c2C#N)c1 ? Its pIC50 was < 5.00

So, COc1cc(C2c3cc4c(cc3C(OC3OC5COC(C)OC5C(O)C3O)C3COC(=O)C23)OCO4)cc(OC)c1O (centres undefined) + Cc1cccc(N(C)C(=O)C2C(O)CCN2c2nc(C)cc(C(F)(F)F)c2C#N)c1 ? Its pIC50 was 5.99

So, C#Cc1c(F)ccc2cc(O)cc(-c3ncc4c(N5CC6CCC(C5)N6)nc(OCC56CCCN5CC(F)C6)nc4c3F)c12 (centres undefined) + Cc1cccc(N(C)C(=O)C2C(O)CCN2c2nc(C)cc(C(F)(F)F)c2C#N)c1 ? Its pIC50 was 7.01

So, C=CC(=O)N1CCN(c2nc(=O)n(-c3c(C)ccnc3C(C)C)c3nc(-c4c(O)cccc4F)c(F)cc23)C(C)C1 (centres undefined) + Nc1ccc(C#CCN(C(=O)Cc2ncc(C(F)(F)F)cc2C(F)(F)F)c2ccc(F)cc2)nn1 ? Its pIC50 was < 5.00

###

System: 186277-243-T-J2-PDC complex spheroid viability
Test: Anticancer human tumor 186277-243-T-J2-PDC cell line growth inhibition [POLQ];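 further: spheroids exposed to compounds for seven days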
Conditions: curve of first compound; second compound 0.0316 µM
Procedure: Multicellular complex tumor spheroid response to Polymerase (POL) inhibitors (novobiocin, ART-558, RP6685) in combination with a variety of drugs and investigational agents in selected tumor cell lines The POL inhibitors (novobiocin, ART-558, and RP6685) were evaluated both individually and in combination with standard of care and investigational anticancer small molecules within a complex spheroid model of solid tumors. . […]
pIC50: −log10 of the molar value.
Could you please report measured pIC50 for the items listed next?

So, CC1COCCN1c1cc(C2(S(C)(=N)=O)CC2)nc(-c2ccnc3[nH]ccc23)n1 (stereo not drawn) + COC1C(OC(N)=O)C(O)C(Oc2ccc3c(O)c(NC(=O)c4ccc(O)c(CC=C(C)C)c4)c(=O)oc3c2C)OC1(C)C ? Its pIC50 was 6.10

So, Cn1ncnc1[C@H]1c2n[nH]c(=O)c3cc(F)cc(c23)N[C@@H]1c1ccc(F)cc1 + Cc1cccc(N(C)C(=O)C2C(O)CCN2c2nc(C)cc(C(F)(F)F)c2C#N)c1 ? Its pIC50 was < 7.00

So, Cn1ncnc1[C@H]1c2n[nH]c(=O)c3cc(F)cc(c23)N[C@@H]1c1ccc(F)cc1 + COC1C(OC(N)=O)C(O)C(Oc2ccc3c(O)c(NC(=O)c4ccc(O)c(CC=C(C)C)c4)c(=O)oc3c2C)OC1(C)C ? Its pIC50 was < 7.00
